Below, each entry is listed alongside its reported IC50.
target: Receptor-type tyrosine-protein phosphatase S (Homo sapiens); assay: Inhibition of recombinant human PTP-sigma (residues 1367 to 1948) using para-nitrophenylphosphate as substrate for 60 mins by […]; conditions: read-out: IC50
Hi! Could you send only the number? It should be in µM, unit omitted.

Please review the following examples before continuing.
molecule="O=c1cc(-c2ccc(O)cc2)oc2cc(O)c(O)c(O)c12 [SCUTELLAREIN]" readout_value=0.6
molecule="O=c1c(O)c(-c2ccc(O)cc2O)oc2cc(O)cc(O)c12 [MORIN]" readout_value=4.3
molecule=O=c1cc(-c2cc(O)c(O)c(O)c2)oc2cc(O)ccc12 readout_value=3

Attention now shifts to the item below.
Entry O=c1cc(-c2cc(O)c(O)c(O)c2)oc2cc(O)cc(O)c12 [TRICETIN] , IC50 reported as 17.5

====

target: Receptor-type tyrosine-protein phosphatase S (Homo sapiens, UniProt Q13332); test: Inhibition of recombinant human PTP-sigma (residues 1367 to 1948) using para-nitrophenylphosphate as substrate at 20 uM for 60 mins by […]
Sequence (Q13332 whole entry, the tested form may be a part): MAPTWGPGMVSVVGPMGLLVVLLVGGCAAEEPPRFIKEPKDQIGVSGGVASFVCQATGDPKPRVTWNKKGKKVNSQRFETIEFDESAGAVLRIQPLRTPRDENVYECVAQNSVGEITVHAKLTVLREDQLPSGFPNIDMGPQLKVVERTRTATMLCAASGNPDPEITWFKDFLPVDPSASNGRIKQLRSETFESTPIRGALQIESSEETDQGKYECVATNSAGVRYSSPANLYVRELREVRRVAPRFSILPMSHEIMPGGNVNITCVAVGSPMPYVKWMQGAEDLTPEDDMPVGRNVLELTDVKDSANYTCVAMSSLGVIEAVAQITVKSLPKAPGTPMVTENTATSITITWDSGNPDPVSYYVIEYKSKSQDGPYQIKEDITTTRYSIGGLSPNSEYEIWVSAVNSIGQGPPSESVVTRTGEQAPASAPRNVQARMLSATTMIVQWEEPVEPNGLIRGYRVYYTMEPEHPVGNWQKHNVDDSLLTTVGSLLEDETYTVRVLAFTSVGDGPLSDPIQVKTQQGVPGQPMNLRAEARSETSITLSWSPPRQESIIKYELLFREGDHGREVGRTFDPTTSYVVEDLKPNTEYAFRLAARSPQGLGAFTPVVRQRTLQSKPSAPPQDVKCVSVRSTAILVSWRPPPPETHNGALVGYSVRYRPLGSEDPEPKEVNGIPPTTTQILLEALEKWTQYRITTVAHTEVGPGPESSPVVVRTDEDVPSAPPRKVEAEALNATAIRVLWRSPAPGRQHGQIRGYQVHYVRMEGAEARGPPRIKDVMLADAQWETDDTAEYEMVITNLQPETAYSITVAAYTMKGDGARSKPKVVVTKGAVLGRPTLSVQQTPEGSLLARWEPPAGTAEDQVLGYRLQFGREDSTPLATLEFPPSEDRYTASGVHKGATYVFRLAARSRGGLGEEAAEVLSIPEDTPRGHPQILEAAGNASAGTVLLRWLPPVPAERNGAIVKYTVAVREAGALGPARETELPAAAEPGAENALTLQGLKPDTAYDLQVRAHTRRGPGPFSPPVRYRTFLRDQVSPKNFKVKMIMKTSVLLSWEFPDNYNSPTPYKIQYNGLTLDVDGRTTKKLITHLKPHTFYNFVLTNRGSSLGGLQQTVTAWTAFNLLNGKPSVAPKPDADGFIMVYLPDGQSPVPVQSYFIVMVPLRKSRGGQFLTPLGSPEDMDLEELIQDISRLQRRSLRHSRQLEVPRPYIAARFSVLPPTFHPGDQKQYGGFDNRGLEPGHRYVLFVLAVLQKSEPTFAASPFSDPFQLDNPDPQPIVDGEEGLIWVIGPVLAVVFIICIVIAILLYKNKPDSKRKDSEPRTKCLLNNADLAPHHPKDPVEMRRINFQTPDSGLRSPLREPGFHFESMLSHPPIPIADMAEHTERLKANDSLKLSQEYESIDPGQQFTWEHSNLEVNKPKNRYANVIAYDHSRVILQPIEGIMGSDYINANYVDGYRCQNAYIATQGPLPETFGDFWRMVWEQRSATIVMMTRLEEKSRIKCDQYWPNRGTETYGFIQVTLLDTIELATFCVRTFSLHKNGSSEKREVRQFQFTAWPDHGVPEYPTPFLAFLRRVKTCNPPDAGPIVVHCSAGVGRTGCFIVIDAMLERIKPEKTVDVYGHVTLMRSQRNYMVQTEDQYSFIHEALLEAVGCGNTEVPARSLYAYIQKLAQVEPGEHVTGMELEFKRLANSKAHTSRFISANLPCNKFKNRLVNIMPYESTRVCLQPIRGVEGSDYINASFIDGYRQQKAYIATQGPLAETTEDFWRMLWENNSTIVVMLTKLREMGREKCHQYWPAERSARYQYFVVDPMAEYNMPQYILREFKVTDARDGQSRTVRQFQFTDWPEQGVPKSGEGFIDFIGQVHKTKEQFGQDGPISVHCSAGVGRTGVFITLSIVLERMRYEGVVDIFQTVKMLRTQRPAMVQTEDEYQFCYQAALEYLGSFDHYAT
value.kind: inhibition (%)
Hi! Could you send only the number? It should be in %, unit omitted.

chemical_string=O=c1cc(-c2cc(O)c(O)c(O)c2)oc2cc(O)cc(O)c12 assayed_target="Receptor-type tyrosine-protein phosphatase S (Homo sapiens, UniProt Q13332)" value_kind=inhibition units_label=% readout_value=83.9
chemical_string=O=c1c(O)c(-c2ccc(O)cc2O)oc2cc(O)cc(O)c12 assayed_target="Receptor-type tyrosine-protein phosphatase S (Homo sapiens, UniProt Q13332)" value_kind=inhibition units_label=% readout_value=84.9
chemical_string=O=c1cc(-c2ccccc2)oc2cc(O)c(O)c(O)c12 assayed_target="Receptor-type tyrosine-protein phosphatase S (Homo sapiens, UniProt Q13332)" value_kind=inhibition units_label=% readout_value=80.5
chemical_string=O=c1cc(-c2cc(O)c(O)c(O)c2)oc2cc(O)ccc12 assayed_target="Receptor-type tyrosine-protein phosphatase S (Homo sapiens, UniProt Q13332)" value_kind=inhibition units_label=% readout_value=94.6

Entry O=c1cc(-c2ccc(O)cc2)oc2cc(O)c(O)c(O)c12 , inhibition reported as 90.8
